ASSAY SYSTEM: T1, human MHC class II DR protein (DRA*0101/DRB1*0401), purified from PRIESS cells (human, UniProt P01903 26-254; P01911 30-266, limits assumed)
T1 construct: mature; also called HLA-DR protein; MHCII
T1 MHC II alpha: not shown
T1 MHC II beta: not shown
TEST: SPR (BIAcore), MHCII on CM5 chip
QUANTITY MEASURED: kon

Check out these entries, answers already filled in.
BINDER	kon
MS-GPC-8-6 Fab (Fab, V domains shown, Fab: VH-CH1 with FLAG tag and STREP tag II, VL-CL; VH residue 1 is Q in Fab) VH: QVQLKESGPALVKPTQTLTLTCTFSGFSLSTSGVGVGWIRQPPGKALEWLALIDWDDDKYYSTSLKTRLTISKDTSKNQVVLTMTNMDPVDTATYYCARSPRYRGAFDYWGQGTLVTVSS VL: DIVLTQPPSVSGAPGQRVTISCSGSSSNIGSNYVSWYQQLPGTAPKLLIYDNNQRPSGVPDRFSGSKSGTSASLAITGLQSEDEADYYCQSYDYDHYVFGGGTKLTVLG	96000 M⁻¹ s⁻¹
MS-GPC-8-17 Fab (Fab, V domains shown, Fab: VH-CH1 with FLAG tag and STREP tag II, VL-CL; VH residue 1 is Q in Fab; also called 7BA) VH: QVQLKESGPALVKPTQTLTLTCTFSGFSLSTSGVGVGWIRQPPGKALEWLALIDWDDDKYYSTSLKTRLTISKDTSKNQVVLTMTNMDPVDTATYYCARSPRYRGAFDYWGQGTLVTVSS VL: DIVLTQPPSVSGAPGQRVTISCSGSSSNIGSNYVSWYQQLPGTAPKLLIYDNNQRPSGVPDRFSGSKSGTSASLAITGLQSEDEADYYCQSYDFSVYVFGGGTKLTVLG	100000 M⁻¹ s⁻¹
MS-GPC-8-27-41 Fab (Fab, V domains shown, Fab: VH-CH1 with FLAG tag and STREP tag II, VL-CL; VH residue 1 is Q in Fab; also called 1D09C3) VH: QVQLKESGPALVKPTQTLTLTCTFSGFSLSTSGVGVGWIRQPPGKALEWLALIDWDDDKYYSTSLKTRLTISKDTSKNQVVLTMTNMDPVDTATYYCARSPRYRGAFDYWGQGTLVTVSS VL: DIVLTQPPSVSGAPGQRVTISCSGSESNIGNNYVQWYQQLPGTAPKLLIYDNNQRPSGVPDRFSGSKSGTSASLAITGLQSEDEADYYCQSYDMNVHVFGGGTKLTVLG	167000 M⁻¹ s⁻¹
MS-GPC-8-9 Fab (Fab, V domains shown, Fab: VH-CH1 with FLAG tag and STREP tag II, VL-CL; VH residue 1 is Q in Fab) VH: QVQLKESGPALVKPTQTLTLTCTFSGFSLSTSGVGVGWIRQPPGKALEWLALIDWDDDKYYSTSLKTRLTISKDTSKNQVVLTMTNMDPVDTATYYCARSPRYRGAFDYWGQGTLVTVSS VL: DIVLTQPPSVSGAPGQRVTISCSGSSSNIGSNYVSWYQQLPGTAPKLLIYDNNQRPSGVPDRFSGSKSGTSASLAITGLQSEDEADYYCQSYDIQLHVFGGGTKLTVLG	185000 M⁻¹ s⁻¹

Return reported kon; argument: MS-GPC-8-1 Fab (Fab, V domains shown, Fab: VH-CH1 with FLAG tag and STREP tag II, VL-CL; VH residue 1 is Q in Fab) VH: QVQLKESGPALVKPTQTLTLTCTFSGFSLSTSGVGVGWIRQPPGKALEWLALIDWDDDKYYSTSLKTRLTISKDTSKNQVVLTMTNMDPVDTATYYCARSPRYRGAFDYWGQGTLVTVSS VL: DIVLTQPPSVSGAPGQRVTISCSGSSSNIGSNYVSWYQQLPGTAPKLLIYDNNQRPSGVPDRFSGSKSGTSASLAITGLQSEDEADYYCQSYDFSHYVFGGGTKLTVLG
193000 M⁻¹ s⁻¹
